Target: Axl phosphorylation in 293MSR-AxlWT6 cells (Homo sapiens (Human))
Sequence (P30530 26-894): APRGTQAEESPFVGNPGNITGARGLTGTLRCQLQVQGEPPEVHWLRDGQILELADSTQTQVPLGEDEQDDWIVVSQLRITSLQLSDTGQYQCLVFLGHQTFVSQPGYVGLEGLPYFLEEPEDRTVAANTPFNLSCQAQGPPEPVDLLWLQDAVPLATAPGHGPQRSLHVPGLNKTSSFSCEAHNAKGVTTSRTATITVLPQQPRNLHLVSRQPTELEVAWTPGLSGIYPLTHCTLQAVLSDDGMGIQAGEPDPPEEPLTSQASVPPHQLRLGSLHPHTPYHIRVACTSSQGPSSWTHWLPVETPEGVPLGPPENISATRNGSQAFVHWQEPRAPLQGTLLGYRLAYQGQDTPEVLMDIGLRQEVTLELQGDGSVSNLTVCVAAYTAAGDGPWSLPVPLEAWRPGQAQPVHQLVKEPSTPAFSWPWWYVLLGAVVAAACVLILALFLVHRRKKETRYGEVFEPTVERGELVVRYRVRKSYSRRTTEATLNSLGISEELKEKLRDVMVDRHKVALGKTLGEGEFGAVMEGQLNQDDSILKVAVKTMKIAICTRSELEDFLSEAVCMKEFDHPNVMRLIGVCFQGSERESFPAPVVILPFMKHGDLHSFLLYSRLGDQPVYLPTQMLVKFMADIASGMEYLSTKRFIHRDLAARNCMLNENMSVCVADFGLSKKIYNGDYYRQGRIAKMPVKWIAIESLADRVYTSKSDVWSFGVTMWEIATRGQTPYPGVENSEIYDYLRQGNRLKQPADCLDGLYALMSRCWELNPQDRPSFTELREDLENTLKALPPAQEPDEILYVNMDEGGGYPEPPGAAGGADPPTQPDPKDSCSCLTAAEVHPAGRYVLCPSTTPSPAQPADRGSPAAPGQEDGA
Assay: Cellular Axl phosphorylation ELISA assay (Gas6-stimulated 293MSR-AxlWT6 cells)
Format: cell-based
Settings: Table 4A, read-out: CELL AXL IC50
Protocol: Cellular Axl Phosphorylation ELISA Assay After 6-7 hrs in tissue culture incubator at 37° C. 5% CO2, medium was removed, serum-free medium was added (with 0.04% bovine serum albumin) and plates were returned to incubator where they remained overnight. […] Media was then removed and lysis buffer was added to wells and shaken at 4° C. for 30 min to generate protein lysates. […] IC50 values were calculated by concentration-response curve fitting using a four-parameter analytic method and reported in μM. […]
Please use Fulfilled for IC50 under 40 nM and Not fulfilled for everything else, ties included.

Determine if CC(C)(C)NC(=O)c1cc(N2CCC(c3n[nH]c4ncncc34)CC2)nc(OC[C@H]2C[C@H]2C#N)n1 [Example 48] shows IC50 strictly lower than 40 nM.
Fulfilled

Determine if C[C@H](CO)Oc1nc(C(=O)NC23CC(C2)C3)cc(N2CCC(c3n[nH]c4ncccc34)CC2)n1 [Example 69] shows IC50 strictly lower than 40 nM.
Not fulfilled

Determine if CN(C)CCOc1ccc(C(N)=O)nc1C1CCN(c2cc(C(=O)NC3CCC3)nc(OCC3CC3(F)F)n2)CC1 (stereo not shown) [Example 39] shows IC50 strictly lower than 40 nM.
Not fulfilled

Values compiled from patent US9593097B2.
